Hello, the source for this data is patent US20170298113A1, in case you need it.

Consider the following binders and their measured Relative binding affinity readings.
# System: human somatostatin receptor subtype SSTR4 (human) (UniProt P31391)
# Sequence (P31391 whole entry): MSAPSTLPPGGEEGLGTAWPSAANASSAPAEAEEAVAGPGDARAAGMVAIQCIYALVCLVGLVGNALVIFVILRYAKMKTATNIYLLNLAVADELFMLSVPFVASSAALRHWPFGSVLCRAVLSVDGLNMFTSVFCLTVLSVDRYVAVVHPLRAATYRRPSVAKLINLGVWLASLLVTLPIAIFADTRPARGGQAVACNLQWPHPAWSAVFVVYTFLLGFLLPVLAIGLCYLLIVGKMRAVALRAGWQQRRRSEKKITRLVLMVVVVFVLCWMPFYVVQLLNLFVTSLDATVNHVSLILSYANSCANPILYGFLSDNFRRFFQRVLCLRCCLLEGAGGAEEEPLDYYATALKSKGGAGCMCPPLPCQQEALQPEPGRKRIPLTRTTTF
# Assay explanation: FACS, transfected HEK-293 cells
*1 amine or outer side, *2 acyl side, *3 side chain or, on linkers, in order; H or OH if unused. Bridges are numbered along the chain shown (N, C = ends). Primed or numbered codes have the meaning given here. [ ]: non-standard residue; d: D form. N(2-mercaptoethyl)Gly = O=C(CN(CCS[*:3])[*:1])[*:2]; FITC′ = fluorescein isothiocyanate; GABA = NCCCC(=O)O
Your answer is read as %, so omit the unit and give the number.

Input line: Reported Relative binding affinity for {FITC′-GABA}-[dF]CYW[dW]KTF[N(2-mercaptoethyl)Gly]-NH2 (disulfide 2-9) [Compound 4] : what is it?
Output line: 13.3

Input line: # lookup: Relative binding affinity of XXFWXKTFX (FITC-GABA-DPhe-HCys*-Phe-Trp-DTrp-Lys-Thr-Phe-GlyS2*-NH2 (* = S-S bond; HCys = homocysteine; GlyS2 = N-thioethyl glycine; C-terminal amide)) [Compound 11]
Output line: 29

Input line: Quick check: Relative binding affinity of {FITC′-GABA}-[dF]RCY[dW]KTF[N(2-mercaptoethyl)Gly]-NH2 (disulfide 3-9) [Compound 6] ?
Output line: 1.5
